# Assay system: NMDA receptor glycine site (Rattus norvegicus)
# Construct: tissue Analytical Biological Services Inc
# Assay info: Test A: Inhibition of binding of [3H]-MDL105,519
# Condition details: inhibition of 1.2 nM [3H]MDL105,519 binding to brain membranes; table does not say rat or human membranes
Readout kind: Ki (nM)
Kindly answer with a numeric value in nM, unit omitted.

# input Which Ki is reported for this compound? `COc1ccc(Cn2nc(O)c3[nH]c4cc(Cl)ccc4c(=O)c3c2=O)cc1OC(=O)N(C)C`
# output 165

# input Which Ki is reported for this compound? `COc1ccc(Cn2nc(O)c3[nH]c4cc(Cl)ccc4c(=O)c3c2=O)cc1OC(=O)N1CCOCC1`
# output 86.6

# input Which Ki is reported for this compound? `Cc1cc(Cn2nc(O)c3[nH]c4cc(Cl)ccc4c(=O)c3c2=O)ccc1OC(=O)N1CCOCC1`
# output 267

# input Which Ki is reported for this compound? `Cc1cc(Cn2nc(O)c3[nH]c4cc(Cl)ccc4c(=O)c3c2=O)ccc1OC(=O)N(C)c1ccccc1`
# output 59
